These entries and their values trace back to the supplement of paper PMC12645437.

Molecular target: T1, CRBN, Q96SW2;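 note: pooled lentiviral library of zinc finger degron-EGFP fusions in mCherry-positive Jurkat cells, FACS-sorted after compound exposure, with degron abundance counted by next-generation sequencing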
T1 chain: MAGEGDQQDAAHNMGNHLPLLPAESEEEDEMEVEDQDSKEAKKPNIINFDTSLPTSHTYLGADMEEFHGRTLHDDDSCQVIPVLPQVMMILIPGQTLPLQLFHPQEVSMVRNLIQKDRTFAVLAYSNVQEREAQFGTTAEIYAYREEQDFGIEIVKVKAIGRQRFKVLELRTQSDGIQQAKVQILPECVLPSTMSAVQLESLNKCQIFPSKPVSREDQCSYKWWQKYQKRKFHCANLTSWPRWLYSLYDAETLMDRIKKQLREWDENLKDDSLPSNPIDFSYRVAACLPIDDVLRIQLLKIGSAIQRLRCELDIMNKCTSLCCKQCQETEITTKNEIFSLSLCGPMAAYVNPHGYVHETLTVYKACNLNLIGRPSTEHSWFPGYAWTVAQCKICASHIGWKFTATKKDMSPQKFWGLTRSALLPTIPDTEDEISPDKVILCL
Experiment: log2 fold change of degron read counts, EGFP-low vs EGFP+ sorted cells (limma voom), compound-induced degradation; higher = more compound-induced degradation of the degron-EGFP fusion; degrons are variants of IKZF1/3 zinc finger 2; compound dose not given here
Conditions: Jurkat; 18 h; compound: compound 33 (diphenyl IMiD analogue)
Over roughly 8,300 sequences, “log2 fold change of degron read counts, EGFP-low vs EGFP+ sorted cells (limma voom), compound-induced degradation” has its median near -1.1; the highest 2% begin near 3.2. The full list was thinned out, with the highest values kept by preference.
log2 fold change of degron read counts values for the sequences below.
Enter the number alone.

These recorded examples may help you get a feel for the data.
| item-sequence | observed-value |
| --- | --- |
| FKCEVCGAAFTQKGNLLRHIKL [46F_47K_49E_50V_52G_53A_54A_55F_67L_, Q9UKT9] | -1.68 |
| FRCPICGHHFTQKGNLLRHIKL [46F_47R_49P_50I_52G_53H_54H_55F_67L_, Q9UKT9] | -1.52 |
| FNCEICGAGFTQKGNLLRHIKL [46F_47N_49E_50I_52G_53A_54G_55F_67L_, Q9UKT9] | -0.0429 |
| FFCEICGAGFTQKGNLLRHIKL [46F_47F_49E_50I_52G_53A_54G_55F_67L_, Q9UKT9] | 1.61 |
| FECEICGHTFTQKGNLLRHIKL [46F_47E_49E_50I_52G_53H_54T_55F_67L_, Q9UKT9] | -2.68 |
| FSCEVCGAVFTQKGNLLRHIKL [46F_47S_49E_50V_52G_53A_54V_55F_67L_, Q9UKT9] | 2.31 |
| FLCEVCGAVFTQKGNLLRHIKL [46F_47L_49E_50V_52G_53A_54V_55F_67L_, Q9UKT9] | 0.896 |
| FFCPICGRAFTQKGNLLRHIKL [46F_47F_49P_50I_52G_53R_54A_55F_67L_, Q9UKT9] | -0.0789 |

Endpoint output: log2 fold change of degron read counts of FNCDVCGAIFTQKGNLLRHIKL [46F_47N_49D_50V_52G_53A_54I_55F_67L_, Q9UKT9] . Value?
-1.86

Same read-out for FRCDICGANFTQKGNLLRHIKL [46F_47R_49D_50I_52G_53A_54N_55F_67L_, Q9UKT9] ?
0.418

Same read-out for FDCEICGAGFTQKGNLLRHIKL [46F_47D_49E_50I_52G_53A_54G_55F_67L_, Q9UKT9] ?
-0.599

Same read-out for FTCDICGAPFTQKGNLLRHIKL [46F_47T_49D_50I_52G_53A_54P_55F_67L_, Q9UKT9] ?
1.41

Same read-out for FICNQCGADFTQKGNLLRHIKL [46F_47I_49N_50Q_52G_53A_54D_55F_67L_, Q9UKT9] ?
-3.36

Same read-out for FNCEQCGAGFTQKGNLLRHIKL [46F_47N_49E_50Q_52G_53A_54G_55F_67L_, Q9UKT9] ?
-2.33

Same read-out for FWCEQCGAQFTQKGNLLRHIKL [46F_47W_49E_50Q_52G_53A_54Q_55F_67L_, Q9UKT9] ?
0.838

Same read-out for LLCNQCGFQCTQKGNLLRHIKL [46L_47L_49N_50Q_52G_53F_54Q_55C_67L_, Q9UKT9] ?
-2.15
